Recorded values, source PubChem BioAssay (NCATS).

target: Voltage-gated inwardly rectifying potassium channel KCNH2 (Homo sapiens) (UniProt Q12809); experiment: qHTS Assay for Small Molecule Inhibitors of the Human hERG Channel Activity (AID 588834); settings: U2OS BacMam hERG, FluxOR thallium flux fluorescence; series mostly up to 46.1 µM;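 also: U2OS cells transduced with hERG by BacMam; top concentration of the series differs between compounds; % is scaled to controls: 0 for no effect and ±100 for the full control effect; lower thallium flux fluorescence means stronger hERG block; nearly all actives have a fitted effect of over 50% in size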
Sequence (Q12809 whole entry, looked up): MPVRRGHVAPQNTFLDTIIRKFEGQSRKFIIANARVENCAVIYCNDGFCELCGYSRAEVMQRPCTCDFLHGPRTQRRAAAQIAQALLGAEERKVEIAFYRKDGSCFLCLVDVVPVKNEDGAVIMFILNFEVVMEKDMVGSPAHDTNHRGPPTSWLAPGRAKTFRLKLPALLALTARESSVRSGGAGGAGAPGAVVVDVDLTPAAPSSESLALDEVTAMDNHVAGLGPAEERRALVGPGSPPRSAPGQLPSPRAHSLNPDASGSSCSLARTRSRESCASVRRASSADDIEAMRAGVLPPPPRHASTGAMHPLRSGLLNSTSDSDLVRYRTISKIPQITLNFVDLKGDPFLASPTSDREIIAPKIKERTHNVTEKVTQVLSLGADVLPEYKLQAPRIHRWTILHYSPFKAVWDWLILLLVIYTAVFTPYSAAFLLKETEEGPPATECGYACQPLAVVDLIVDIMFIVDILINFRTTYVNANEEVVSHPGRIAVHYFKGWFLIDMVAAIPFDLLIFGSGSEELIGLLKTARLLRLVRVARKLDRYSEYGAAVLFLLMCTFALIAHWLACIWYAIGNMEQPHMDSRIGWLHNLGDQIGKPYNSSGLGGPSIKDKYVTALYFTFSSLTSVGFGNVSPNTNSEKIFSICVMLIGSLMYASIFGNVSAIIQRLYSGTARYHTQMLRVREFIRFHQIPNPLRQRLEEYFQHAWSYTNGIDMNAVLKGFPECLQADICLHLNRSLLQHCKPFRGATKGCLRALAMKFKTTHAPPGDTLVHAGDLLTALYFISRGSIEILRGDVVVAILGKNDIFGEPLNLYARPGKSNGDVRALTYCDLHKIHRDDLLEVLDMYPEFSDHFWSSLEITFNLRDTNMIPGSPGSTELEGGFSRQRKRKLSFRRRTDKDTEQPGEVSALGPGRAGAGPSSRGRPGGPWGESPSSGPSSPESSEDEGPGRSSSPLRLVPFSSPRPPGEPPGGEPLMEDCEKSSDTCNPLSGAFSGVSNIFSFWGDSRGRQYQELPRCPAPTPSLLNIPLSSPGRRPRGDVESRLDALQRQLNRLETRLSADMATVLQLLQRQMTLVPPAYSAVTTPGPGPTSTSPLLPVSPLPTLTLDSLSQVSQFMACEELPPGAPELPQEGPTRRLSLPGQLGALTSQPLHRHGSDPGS
Results filed as inconclusive are left out. Calls of active or inactive are those of the source. Calls follow the shape of the dose curve; as a rule, active = well fitted inhibition curve with a large enough effect; inconclusive = small, poorly fitted or top-dose-only effect; inactive = flat fitted curve, though single readings scatter.
Field 'call' accepts active, inactive

The examples below pair each entry with its known result.
compound: CC(C)C[C@H]1C(=O)N2CCCC2[C@]2(O)O[C@](NC(=O)[C@@H]3C=C4c5cccc6[nH]c(Br)c(c56)C[C@H]4N(C)C3)(C(C)C)C(=O)N12 (stereo partly drawn)
answer.label: inactive

compound: CN(CCOc1ccc(C[C@H](Nc2ccccc2C(=O)c2ccccc2)C(=O)O)cc1)c1ccccn1
answer.label: inactive

compound: Cc1cn([C@H]2C[C@@H](N=[N+]=[N-])[C@@H](CO)O2)c(=O)[nH]c1=O
answer.label: inactive

compound: OC[C@H]1O[C@@H](n2cnc3c(NCCc4ccccc4)ncnc32)[C@H](O)[C@H]1O
answer.label: inactive

compound: NC(=S)c1ccc[n+]([C@@H]2O[C@@H](COP(=O)([O-])OP(=O)(O)OC[C@H]3O[C@@H](n4cnc5c(N)ncnc54)[C@H](OP(=O)(O)O)[C@H]3O)C(O)C2O)c1 (stereo partly drawn)
answer.label: inactive

INPUT: Dear all, I need the recorded test outcome for C[C@H]1CC2[C@@H]3CCC4=CC(=O)C=C[C@]4(C)[C@@]3(Cl)[C@@H](O)C[C@]2(C)[C@@]1(O)C(=O)CO (stereo partly drawn) , thank you.
OUTPUT: inactive

INPUT: Dear all, I need the recorded test outcome for `CNC(=O)[C@H]1O[C@@H](n2cnc3c(NCc4ccc(N)cc4)ncnc32)[C@H](O)[C@H]1O` , thank you.
OUTPUT: inactive

INPUT: Dear all, I need the recorded test outcome for `N[C@H](Cc1ccc(O)c(O)c1)C(=O)O` , thank you.
OUTPUT: inactive

----------
target: Rap guanine nucleotide exchange factor 4 (Homo sapiens) (UniProt Q8WZA2); experiment: Confirmatory qHTS for antagonist of cAMP-regulated guanine nucleotide exchange factor 4 (EPAC2) (AID 1645885); details: EPAC2 Rap1B-BODIPY-GDP exchange fluorescence, biochemical; series mostly up to 114 µM; also: % is scaled to controls: 0 for no effect and ±100 for the full control effect; nearly all actives have a fitted effect of over 25% in size
Sequence (Q8WZA2 whole entry, looked up): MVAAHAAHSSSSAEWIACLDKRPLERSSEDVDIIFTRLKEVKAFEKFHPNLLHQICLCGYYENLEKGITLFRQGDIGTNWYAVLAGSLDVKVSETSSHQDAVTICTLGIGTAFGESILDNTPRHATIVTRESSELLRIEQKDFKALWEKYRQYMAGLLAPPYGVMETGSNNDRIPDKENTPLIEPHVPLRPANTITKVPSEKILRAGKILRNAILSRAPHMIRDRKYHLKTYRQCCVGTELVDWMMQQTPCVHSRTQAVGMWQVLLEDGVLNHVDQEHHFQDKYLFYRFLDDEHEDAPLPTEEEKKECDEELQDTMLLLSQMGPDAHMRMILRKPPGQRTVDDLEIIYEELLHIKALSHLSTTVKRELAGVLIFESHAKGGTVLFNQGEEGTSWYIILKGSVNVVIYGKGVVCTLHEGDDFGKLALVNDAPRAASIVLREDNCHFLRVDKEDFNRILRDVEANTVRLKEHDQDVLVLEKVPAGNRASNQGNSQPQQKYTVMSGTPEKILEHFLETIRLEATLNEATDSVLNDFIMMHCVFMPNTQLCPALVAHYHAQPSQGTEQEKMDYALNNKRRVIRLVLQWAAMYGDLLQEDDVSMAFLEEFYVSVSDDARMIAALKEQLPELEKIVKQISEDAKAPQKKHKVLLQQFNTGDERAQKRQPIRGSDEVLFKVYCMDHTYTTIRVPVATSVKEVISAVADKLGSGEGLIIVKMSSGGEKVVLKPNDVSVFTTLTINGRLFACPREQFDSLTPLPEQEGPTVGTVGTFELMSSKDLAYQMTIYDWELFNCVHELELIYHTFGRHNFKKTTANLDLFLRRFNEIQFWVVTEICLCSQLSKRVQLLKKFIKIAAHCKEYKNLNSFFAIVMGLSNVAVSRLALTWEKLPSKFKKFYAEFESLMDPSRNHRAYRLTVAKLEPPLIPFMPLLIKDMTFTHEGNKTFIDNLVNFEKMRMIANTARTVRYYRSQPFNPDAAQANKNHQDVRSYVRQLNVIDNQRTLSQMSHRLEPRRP
Results filed as inconclusive are left out. The source made the active and inactive calls. The call rests on the fitted dose curve; in most records, active means well fitted inhibition curve with a large enough effect; inconclusive means small, poorly fitted or top-dose-only effect; inactive means no such curve, though single readings can be large or run the other way.
recorded.endpoint: activity change, negative = inhibition

# annotated cases, reported activity change, negative = inhibition shown
compound: COCC(=O)N1CCC2(CC1)CN(c1ccccn1)C2
recorded.value: inactive
--
compound: O=C(CSc1nnc(-c2cccc(S(=O)(=O)N3CCCC3)c2)n1-c1ccccc1)Nc1ccc(C(=O)O)cc1
recorded.value: -11.1% [at 12.7 µM] (inactive)
--
compound: CC(C)=CCc1c2c(c3occ(-c4ccc(O)c(O)c4)c(=O)c3c1O)C=CC(C)(C)O2
recorded.value: inactive
--
compound: COCCn1c(=O)c(-c2cccs2)nc2cnc(N(C)C)nc21
recorded.value: inactive
--
compound: COc1ccc(C(=O)N2CCC3(CC2)CN(c2ccncc2)C3)cc1
recorded.value: inactive
--
compound: CCOc1ccccc1CNc1ncnc2ccc(-c3c(C)noc3C)cc12
recorded.value: inactive

INPUT: Field request: activity change, negative = inhibition | item: `O=C(CSc1nc2ccccc2n1CCc1ccccc1)c1ccc(O)c(O)c1`
OUTPUT: inactive

INPUT: Field request: activity change, negative = inhibition | item: `COCC(=O)N1CCC2(CC1)CCN(C(=O)Nc1cccc(C#N)c1)CC2`
OUTPUT: inactive

INPUT: Field request: activity change, negative = inhibition | item: `O=C(Oc1ccccc1)N1CCC2(CCCN(c3ccccc3)C2)CC1`
OUTPUT: inactive

INPUT: Field request: activity change, negative = inhibition | item: `CN(Cc1ccco1)c1ncnc2ccc(-c3ccoc3)cc12`
OUTPUT: inactive

INPUT: Field request: activity change, negative = inhibition | item: CC(=O)NC(c1cc(Cl)c2ccccc2c1O)C(C)C (stereo unspecified)
OUTPUT: -39.3% [at 12.7 µM] (inactive)

----------
test: qHTS for activators of dead-cell proteases activity screened against the NCATS CANVASS Library (AID 1347392); conditions: HepG2 cytotoxicity, dead-cell protease luminescence, 5 h; series mostly up to 46.1 µM;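 also: luminescence from protease leaking out of membrane-damaged cells cleaving impermeant substrate; 0% is about no effect; rising signal means more cytotoxicity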
Inconclusive results are not listed. Activity calls are given as the source filed them. Calls come from the whole dose curve; as a rule, active = well fitted curve in the direction sought with a large enough effect; inconclusive = small, poorly fitted or top-dose-only effect, or another doubt; inactive = no such curve, though single readings can be large or run the other way.
recorded.endpoint: activation (cytotoxicity)

molecule: C/C=C(/C)c1c(Cl)c(O)c(C)c2c1Oc1c(Cl)c(O)c(Cl)c(C)c1C(=O)O2
activation (cytotoxicity): inactive
--
molecule: C/C=C(/CO)C(=O)O[C@@H]1[C@H](O)[C@@H](C(=O)OC)O[C@@H]2C[C@H]3OC(n4cnc5c(N)ncnc54)[C@H](OC)[C@H]3O[C@@]12O (stereo partly specified)
activation (cytotoxicity): inactive
--
molecule: C/C=C/C1C=CC2CC(C)CC(C)C2C1C(=O)CC(=O)NC(CO)C/C=C/CCCCC (stereo unspecified)
activation (cytotoxicity): inactive
--
molecule: COC(=O)[C@@]1(C)CCC[C@]2(C)c3cc(OC)ccc3CC[C@@H]12
activation (cytotoxicity): inactive
--
molecule: COc1cc(C2C3=C(Cc4cc5c(cc42)OCO5)C(=O)OC3)cc(OC)c1OC (stereo unspecified)
activation (cytotoxicity): inactive
--
molecule: C/C=C1/C2=CCCN3C(=O)O[C@H]([C@H]1O)[C@H]23
activation (cytotoxicity): inactive
--
molecule: COC(=O)C1=C[C@]23C[C@@H](C)CC[C@@H]2[C@@]2(C)CC[C@@H](C(C)C)[C@@](O)(O3)[C@@H]12
activation (cytotoxicity): inactive
--
molecule: COc1cc2c(cc1OC)[C@@H](c1ccc3c(c1)OCO3)C(C)C(C)C2=O (stereo partly specified)
activation (cytotoxicity): inactive
--
molecule: CCC(=O)CCCCC[C@@H]1NC(=O)[C@H]2CCCCN2C(=O)[C@H](C(C)C)NC(=O)[C@H](Cc2cn(OC)c3ccccc23)NC1=O
activation (cytotoxicity): inactive
--
molecule: C/C=C1/CN2C3CC1C1C=CC(=O)N4c5ccccc5[C@@]3(C[C@@H]2C2=C[C@H]3C5CC6N(CC[C@@]67c6ccccc6N(C2=O)[C@@H]37)C/C5=C/C)[C@H]14 (stereo partly specified)
activation (cytotoxicity): inactive

INPUT: Field request: activation (cytotoxicity) | item: `CC[C@H](O)CCCCC[C@@H]1NC(=O)[C@H]2CCCCN2C(=O)[C@H]([C@H](C)CC)NC(=O)[C@H](Cc2cn(OC)c3ccccc23)NC1=O`
OUTPUT: inactive

INPUT: Field request: activation (cytotoxicity) | item: `CC(C)[C@@H]1CC(=O)c2coc3c2[C@H]1C[C@@H](C)C3=O`
OUTPUT: inactive

INPUT: Field request: activation (cytotoxicity) | item: `C[n+]1cc2cc(C(N)=O)[nH]c3c(=N)c(Cl)c(N)c1c23`
OUTPUT: inactive

----------
target: Dual specificity protein kinase CLK4 (Homo sapiens); experiment: qHTS Assay for Inhibitors of CDC-like Kinase 4 (Kinase-Glo Assay) (AID 1770); details: recombinant Clk4, Kinase-Glo ATP depletion luminescence; series mostly up to 66.7 µM; also: nearly all actives have a fitted effect of over 65% in size; also: potency is read from the fitted curve at half-maximal effect
Results filed as inconclusive are left out. Calls of active or inactive are those of the source. The call rests on the fitted dose curve; in most records, active means well fitted inhibition curve with a large enough effect; inconclusive means small, poorly fitted or top-dose-only effect; inactive means flat fitted curve, though single readings scatter.
recorded.endpoint: Potency

smiles.structure: COc1cccc(Cn2c(=O)c(-c3cccs3)nc3cnc(N(C)C)nc32)c1
Potency: inactive
//
smiles.structure: COCCNc1ncnc2ccc(-c3cccc(NS(C)(=O)=O)c3)cc12
Potency: 12.6 µM (active)
//
smiles.structure: Cc1ccccc1-c1cc(N2CCN(C)CC2)ncn1
Potency: inactive
//
smiles.structure: CN1CCN(c2ncnc3ccc(-c4ccc5c(c4)OCO5)cc23)CC1
Potency: 0.282 µM (active)

Attention now shifts to the item below.
INPUT: Field request: Potency | item: `CN(C)Cc1ccccc1-c1cc(N(C)Cc2ccco2)ncn1`
OUTPUT: inactive

----------
assay: G06 Cancer Cell Toxicity qHTS against the NCATS CANVASS Library (AID 1347368); settings: G06 dog glioma cells, viability ATP luminescence, 72 h; series mostly up to 46.1 µM; also: nearly all actives have a fitted effect of over 60% in size
Inconclusive results are not listed. The source made the active and inactive calls. Calls come from the whole dose curve; as a rule, active = well fitted cell-killing curve with a large enough effect; inconclusive = small, poorly fitted or top-dose-only effect; inactive = flat fitted curve, though single readings scatter. Peptide text beside a SMILES is read from it. * marks the point of attachment. Hexanoyl = CCCCCC(=O)*
Field 'call' accepts active, inactive

compound: COc1cc(C2C3=C(Cc4cc5c(cc42)OCO5)C(=O)OC3)cc(OC)c1OC (stereo not drawn)
answer.label: active
//
compound: CCCCCC(=O)N[C@@H](CC(C)C)C(=O)N[C@H](C=O)CCC(=O)O (Hexanoyl-Leu-Glu-aldehyde)
answer.label: inactive
//
compound: C=C[C@]1(C)CC[C@@H]([C@H](C)C(=O)CC=C(C)C)O1
answer.label: inactive

INPUT: Dear all, I need the recorded test outcome for `COC(=O)[C@]1([C@H]2CCC(=O)O2)CC(=O)c2c(O)cc(C)cc2O1` , thank you.
OUTPUT: inactive
